Cited source for all entries: a collection of fitness landscapes (doi:10.1016/j.celrep.2020.107928)

B1: Caulobacter ParB omega fusion; a variant is named by its letters at X, in order, B8GW30 (parent)
chain: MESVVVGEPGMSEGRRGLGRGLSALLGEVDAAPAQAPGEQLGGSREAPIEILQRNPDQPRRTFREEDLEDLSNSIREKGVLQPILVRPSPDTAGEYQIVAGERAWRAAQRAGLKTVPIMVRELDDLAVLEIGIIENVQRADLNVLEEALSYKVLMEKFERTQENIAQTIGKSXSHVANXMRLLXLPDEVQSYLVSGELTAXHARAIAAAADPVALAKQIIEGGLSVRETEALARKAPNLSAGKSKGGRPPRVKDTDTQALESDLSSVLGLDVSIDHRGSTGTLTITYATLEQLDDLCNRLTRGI

Variants of: B1
Assay: one-hybrid fitness for binding NBS DNA (the Noc-binding site; scaled: cognate 1, non-cognate 0); higher = stronger binding
Conditions: with NBS DNA site
The full ranking holds about 81,000 sequences; the median of “one-hybrid fitness for binding NBS DNA” is about -0.1, and the highest 2% start at about 0.36. Shown is part of a subset that was picked to be rich in the highest values.
reported.metric: one-hybrid fitness for binding NBS DNA

variant.spec	one-hybrid fitness for binding NBS DNA
QKTR	0.646

one-hybrid fitness for binding NBS DNA in this record for "QHTH" : ≤ 0.2

For "QRKG" the variant record lists one-hybrid fitness for binding NBS DNA as 0.485

Summary for this variant, "PTNP" : one-hybrid fitness for binding NBS DNA is ≤ 0.2

The recorded one-hybrid fitness for binding NBS DNA for "CPHR" is ≤ 0.2

The variant listed as "VLSD" shows one-hybrid fitness for binding NBS DNA equal to ≤ 0.2
